Where do these numbers come from? They come from ChEMBL document CHEMBL1127826.

Reported Delta TC values follow for various compounds
species: Rattus norvegicus; assay: Percent change in total cholesterol in peanut oil (5.5%) - cholic acid (0.3%) - Cholesterol (1.5%) fed rats after a single dose; format: functional

- Smiles: "CC(C)c1cccc(C(C)C)c1NC(=O)NCC1(c2ccc(Cl)cc2)CCCC1"
  Delta TC, %: -64
- Smiles: "CC(C)c1cccc(C(C)C)c1NC(=O)NCC1(c2ccc(F)cc2)CCCC1"
  Delta TC, %: -57
- Smiles: "CC(C)c1cccc(C(C)C)c1NC(=O)NCC1(c2ccc(Br)cc2)CCCC1"
  Delta TC, %: -59
- Smiles: "Cc1ccc(C2(CNC(=O)Nc3c(C(C)C)cccc3C(C)C)CCCC2)cc1"
  Delta TC, %: -70
- Smiles: "Cc1ccccc1C1(CNC(=O)Nc2c(C(C)C)cccc2C(C)C)CCCC1"
  Delta TC, %: -73

###

assay: Compound was evaluated for the distribution coefficient at pH 4.0; type: physicochemical; settings: octanol/water
Test Readout: logD

- Compound: "CC(C)c1cccc(C(C)C)c1NC(=O)NCC1(c2ccc(N(C)C)cc2)CCCC1 [NEVANIMIBE]"
  Test Readout: "logD"
  Test Value: 2.89

###

Reported Change non HDL-C values follow for various compounds
tested on: Rattus norvegicus; test: Compound was evaluated in experiment 1 for change in non High density lipoprotein at the doses at 0.3 (mg/kg) dose; type: functional

- Compound: "CC(C)c1cccc(C(C)C)c1NC(=O)NCC1(c2cccc(CN3CCOCC3)c2)CCCC1"
  Change non HDL-C (%): -26
- Compound: "CC(C)c1cccc(C(C)C)c1NC(=O)NCC1(c2ccc(N(C)C)cc2)CCCC1.Cl [NEVANIMIBE HYDROCHLORIDE]"
  Change non HDL-C (%): -22
- Compound: "CC(C)c1cccc(C(C)C)c1NC(=O)NCC1(c2cccc(CN3CCN(C)CC3)c2)CCCC1"
  Change non HDL-C (%): 3
- Compound: "CCCCN(CCCC)Cc1cccc(C2(CNC(=O)Nc3c(C(C)C)cccc3C(C)C)CCCC2)c1"
  Change non HDL-C (%): -15

###

system: Rattus norvegicus; assay: Compound was evaluated in experiment 1 for Change in total cholesterol at 10 (mg/kg) dose; assay type: functional

- Compound: "CC(C)c1cccc(C(C)C)c1NC(=O)NCC1(c2cccc(CN3CCOCC3)c2)CCCC1"
  Change TC / %: -63
- Compound: "CC(C)c1cccc(C(C)C)c1NC(=O)NCC1(c2ccc(N(C)C)cc2)CCCC1.Cl [NEVANIMIBE HYDROCHLORIDE]"
  Change TC / %: -64
- Compound: "CCCCN(CCCC)Cc1cccc(C2(CNC(=O)Nc3c(C(C)C)cccc3C(C)C)CCCC2)c1"
  Change TC / %: -4
- Compound: "CC(C)c1cccc(C(C)C)c1NC(=O)NCC1(c2cccc(CN3CCN(C)CC3)c2)CCCC1"
  Change TC / %: -51

###

assay: Solubility at pH 4.0; type: physicochemical; settings: buffer
Reported solubility values follow for various compounds

- Smiles: "CC(C)c1cccc(C(C)C)c1NC(=O)NCC1(c2ccc(N(C)C)cc2)CCCC1"
  solubility: "< 10 µg/mL"
- Smiles: "CC(C)c1cccc(C(C)C)c1NC(=O)NCC1(c2ccccc2)CCCC1"
  solubility: "< 1 µg/mL"

###

experiment: Compound was evaluated for the distribution coefficient at pH 7.4; format: physicochemical; settings: octanol/water
Test Readout: logD

- Smiles: "CC(C)c1cccc(C(C)C)c1NC(=O)NCC1(c2cccc(CN(C)C)c2)CCCC1"
  Test Value: 4.8
- Smiles: "CC(C)c1cccc(C(C)C)c1NC(=O)NCC1(c2ccccc2)CCCC1"
  Test Value: 5.16
